For each entry below, report its pIC50 value.
molecular target: integrin α4β1 (Homo sapiens, UniProt P05556+P13612); construct: cell strain Jurkat (ATCC TIB-152) of human T cells, known to express integrin α4β1; endogenous in cells; assay: Assessment of VCAM-1/α4β1 binding antagonist activity (Jurkat cells binding to VCAM-1); settings: Jurkat human T cells binding to recombinant human VCAM-1; read-out: integrin VCAM/α4 binding antagonistic activity (IC50) α4β1
Sequence (P13612 34-1032): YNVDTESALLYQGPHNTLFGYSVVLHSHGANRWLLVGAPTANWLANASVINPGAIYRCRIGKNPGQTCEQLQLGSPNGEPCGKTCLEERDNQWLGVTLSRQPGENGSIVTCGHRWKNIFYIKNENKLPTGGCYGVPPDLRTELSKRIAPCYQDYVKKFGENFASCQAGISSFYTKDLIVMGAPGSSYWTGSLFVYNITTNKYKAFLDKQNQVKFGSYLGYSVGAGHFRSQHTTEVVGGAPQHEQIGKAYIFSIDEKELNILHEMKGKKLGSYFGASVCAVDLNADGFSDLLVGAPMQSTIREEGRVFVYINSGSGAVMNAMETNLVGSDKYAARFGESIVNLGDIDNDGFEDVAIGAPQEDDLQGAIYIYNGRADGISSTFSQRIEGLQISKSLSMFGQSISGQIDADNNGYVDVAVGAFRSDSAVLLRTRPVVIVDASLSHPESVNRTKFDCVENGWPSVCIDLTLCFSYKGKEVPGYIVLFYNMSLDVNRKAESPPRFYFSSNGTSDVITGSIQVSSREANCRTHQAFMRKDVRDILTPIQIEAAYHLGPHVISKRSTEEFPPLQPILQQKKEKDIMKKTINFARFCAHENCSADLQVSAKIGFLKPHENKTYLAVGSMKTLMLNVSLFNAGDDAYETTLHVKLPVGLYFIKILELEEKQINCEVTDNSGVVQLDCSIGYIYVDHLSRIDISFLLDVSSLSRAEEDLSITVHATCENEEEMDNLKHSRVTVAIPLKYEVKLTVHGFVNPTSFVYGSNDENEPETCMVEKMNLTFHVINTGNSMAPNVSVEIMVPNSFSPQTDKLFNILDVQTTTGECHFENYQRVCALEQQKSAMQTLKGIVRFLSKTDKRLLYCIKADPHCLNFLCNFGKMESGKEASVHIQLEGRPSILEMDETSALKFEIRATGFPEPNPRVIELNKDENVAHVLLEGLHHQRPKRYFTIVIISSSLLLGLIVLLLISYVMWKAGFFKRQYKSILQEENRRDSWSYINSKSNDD
Sequence (P05556 21-798): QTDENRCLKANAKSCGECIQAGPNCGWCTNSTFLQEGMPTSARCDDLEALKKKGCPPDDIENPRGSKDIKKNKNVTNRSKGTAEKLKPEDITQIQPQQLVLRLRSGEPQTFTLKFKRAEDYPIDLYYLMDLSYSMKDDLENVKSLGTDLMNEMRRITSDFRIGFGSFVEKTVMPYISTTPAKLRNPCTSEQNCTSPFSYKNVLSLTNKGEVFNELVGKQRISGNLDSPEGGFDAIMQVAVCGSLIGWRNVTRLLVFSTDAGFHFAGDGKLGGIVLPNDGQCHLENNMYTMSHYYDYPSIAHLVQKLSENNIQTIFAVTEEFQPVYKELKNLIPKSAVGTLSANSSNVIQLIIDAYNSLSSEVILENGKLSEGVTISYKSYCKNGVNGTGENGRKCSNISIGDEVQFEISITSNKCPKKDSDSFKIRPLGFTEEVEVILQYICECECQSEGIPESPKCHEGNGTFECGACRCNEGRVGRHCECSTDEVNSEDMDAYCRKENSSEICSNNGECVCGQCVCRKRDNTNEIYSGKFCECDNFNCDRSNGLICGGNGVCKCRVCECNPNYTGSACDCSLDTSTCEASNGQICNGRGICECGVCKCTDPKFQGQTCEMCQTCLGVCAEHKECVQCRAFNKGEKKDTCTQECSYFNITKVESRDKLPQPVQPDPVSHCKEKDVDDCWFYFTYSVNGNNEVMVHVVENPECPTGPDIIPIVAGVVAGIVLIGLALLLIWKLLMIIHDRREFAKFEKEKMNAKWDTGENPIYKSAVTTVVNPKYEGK
Numbers only, as −log10 of the molar value.

// known answers, use as guide
Given item Cn1c(=O)n(-c2ccc(C[C@H](NC(=O)c3c(Cl)cncc3Cl)C(=O)O)cc2)c(=O)c2ccccc21 , the value recorded as its pIC50 is 8.22

Given item Cn1c(=O)n(-c2ccc(C[C@H](NC(=O)c3c(Cl)cccc3Cl)C(=O)NO)cc2)c(=O)c2ccccc21 [Reference Example 211] , the value recorded as its pIC50 is 6.60

Given item Cn1c(=O)n(-c2ccc(C[C@H](NC(=O)c3c(Cl)cccc3Cl)C(=O)O)cc2)c(=O)c2cc(N3CCCC3)ccc21 , the value recorded as its pIC50 is 7.26

Given item O=C(N[C@@H](Cc1ccc(-n2nnc3ccc(F)cc3c2=O)cc1)C(=O)O)c1c(Cl)cccc1Cl , the value recorded as its pIC50 is 6.64

Record pIC50 per entry; entries follow.
1. CCN(C)c1nc2ccccc2c(=O)n1-c1ccc(C[C@H](NC(=O)c2c(Cl)cccc2Cl)C(=O)O)cc1
2. O=C(N[C@@H](Cc1ccc(-n2c(=O)c3ccccc3n(Cc3ccc(Cl)cc3Cl)c2=O)cc1)C(=O)O)c1c(Cl)cccc1Cl
3. CN1C(=O)N(c2ccc(C[C@H](NC(=O)c3c(Cl)cccc3Cl)C(=O)O)cc2)S(=O)(=O)c2ccc(C(F)(F)F)cc21
4. COCC(=O)Nc1ccc2c(c1)c(=O)n(-c1ccc(C[C@H](NC(=O)c3c(Cl)cccc3Cl)C(=O)O)cc1)c(=O)n2C
5. O=C(N[C@@H](Cc1ccc(-n2c(=O)c3ccccc3n(Cc3c(Cl)cccc3Cl)c2=O)cc1)C(=O)O)c1c(Cl)cccc1Cl [Reference Example 114]

1: 5.69; 2: 6.35; 3: 7.96; 4: 7.85; 5: 6.72
